// reported glycan array binding signal (z-score) per item
Target: Gal(b1-4)GlcNAc(b1-2)[Gal(b1-4)GlcNAc(b1-4)]Man(a1-3)[Gal(b1-4)GlcNAc(b1-2)[Gal(b1-4)GlcNAc(b1-6)]Man(a1-6)]Man(b1-4)GlcNAc(b1-4)GlcNAc
Assay: glycan array binding signal (z-score within array); higher = stronger binding
Conditions: glycan notation: IUPAC condensed, linker removed
Many of the other results were omitted from the sample, so the strongest signals are more common in it than they were.
The response must contain the number and no unit.

binder | glycan array binding signal (z-score)
SynCAM (Mus musculus) (protein) MASAVLPSGSQCAAAAAVAAAAAPPGLRLRLLLLLLSAAALIPTGDGQNLFTKDVTVIEGEVATISCQVNKSDDSVIQLLNPNRQTIYFRDFRPLKDSRFQLLNFSSSELKVSLTNVSISDEGRYFCQLYTDPPQESYTTITVLVPPRNLMIDIQKDTAVEGEEIEVNCTAMASKPATTIRWFKGNKELKGKSEVEEWSDMYTVTSQLMLKVHKEDDGVPVICQVEHPAVTGNLQTQRYLEVQYKPQVHIQMTYPLQGLTREGDAFELTCEAIGKPQPVMVTWVRVDDEMPQHAVLSGPNLFINNLNKTDNGTYRCEASNIVGKAHSDYMLYVYDPPTTIPPP | -0.042
PFL (Pseudomonas fluorescens) (protein) MSKYAVANQWGGSSAPWHPGGTWVLGARDNQNVVAIEIKSGDGGKSFTGTMTYAGEGPIGFKAQRTGQNQYNVENQWGGNDAPWHPGGKWVIGGRDNQNVIALSVTSSDGGKNLSGTNTYANEGPIGFRGQIE | 0.988
MSMEG3662-2a (Mycobacterium smegmatis), A0QYH7_MYCS2 (protein) MGDTLTAGQKLERGGSLQSGNGAYTLTLQDDGNLVLYARDKAVWSTGTNGQDVVRAEVQTDGNFVLYTAEKPVWHTDTKGKKEVKLVLQDDRNLVLYAKDGPAWSSKTDTTEPPPPAPEPEKEAEVAPAAAEEAAPAPVAEPAPAEPAPAAPPPAPPAPRTYTVVSGDTLWAIAERFYGDGSKYQQIADASGIANPDLIHPGQVLTIP | -0.118
Tachylectin-2 (Tachypleus tridentatus), TAL2_TACTR (protein) VGGESMLRGVYQDKFYQGTYPQNKNDNWLARATLIGKGGWSNFKFLFLSPGGELYGVLNDKIYKGTPPTHDNDNWMGRAKKIGNGGWNQFQFLFFDPNGYLYAVSKDKLYKASPPQSDTDNWIARATEIGSGGWSGFKFLFFHPNGYLYAVHGQQFYKALPPVSNQDNWLARATKIGQGGWDTFKFLFFSSVGTLFGVQGGKFYEDYPPSYAHDNWLARAKLIGNGGWDDFRFLFF | -0.294
Gal 1 (Canis lupus) (protein) MACGLVASNLSLKPGQCLRVQCEVVPEAKSFVLNLGKDGDNLCLHFNPRFEAHGDVNTIVCNSKDGGAWGEELRESAFPFQPGTVTEVCISFDQADLTIKLPDGYTFKFPNRLNLEAISYLAADGDMKIKCLAFD | 6.78
Tectonin 2 (Laccaria bicolor) (protein) MPWKGISGSLSRISAGSVTNVWGVNAANNIYRYTGDDAKPWVQIPGALTDIGAAADGTVWGVNAAGNIYRYVWDSNHWTQIKGALKRISAGSRTNVWGVNAGGAIYRYTGDDANPWVQIPGVLSDIGAGADGTVWGVNAAGEIYRYTGDQGDPNHWVKIPGALSAISAGIKTNVWGVNSANNIYTSTGDDKNPWLGIGGSLVDIGAGTDGVVWGVNAGGGIYRWIRD | -0.038
ECL (Erythrina cristagalli), Q6YD91 (protein) VETISFSFSEFEPGNNDLTLQGAAIITQSGVLQLTKINQNGMPAWDSTGRTLYTKPVHIWDMTTGTVASFETRFSFSIEQPYTRPLPADGLVFFMGPTKSKPAQGYGYLGVFNNSKQDNSYQTLAVEFDTFSNPWDPPQVPHIGIDVNSIRSIKTQPFQLDNGQVANVVIKYDASSKILLAVLVYPSSGAIYTIAEIVDVKQVLPEWVDVGLSGATGAQRDAAETHDVYSWSFHASLPETND | 4.03

Consider now this further binder.
[ask] Item under review: UEA-I (Ulex europaeus), P22972 (protein) SDDLSFKFKNFSQNGKDLSFQGDASVIETGVLQLNKVGNNLPDETGGIARYIAPIHIWNCNTGEVASFITSFSFFMETSANPKAATDGLTFFLAPPDSPLRRAGGYFGLFEDTKDNDSSYQTVAVEFDTIGSPVNFDDPGFPHIGIDVNRVKSINAERWNKRYGLNNVANVEIIYEASSKTLTASLTYPSDQTSISVTSIVDLKEILPEWVSVGFSGGTYIGRQATHEVLNWYFTSNLIN . Reported glycan array binding signal (z-score)?
[reply] -0.175
